Data origin, for the record: patent US8895571B2

experimentalTarget: Full length Akt1 (Homo sapiens, UniProt P31749)
Sequence (P31749 whole entry): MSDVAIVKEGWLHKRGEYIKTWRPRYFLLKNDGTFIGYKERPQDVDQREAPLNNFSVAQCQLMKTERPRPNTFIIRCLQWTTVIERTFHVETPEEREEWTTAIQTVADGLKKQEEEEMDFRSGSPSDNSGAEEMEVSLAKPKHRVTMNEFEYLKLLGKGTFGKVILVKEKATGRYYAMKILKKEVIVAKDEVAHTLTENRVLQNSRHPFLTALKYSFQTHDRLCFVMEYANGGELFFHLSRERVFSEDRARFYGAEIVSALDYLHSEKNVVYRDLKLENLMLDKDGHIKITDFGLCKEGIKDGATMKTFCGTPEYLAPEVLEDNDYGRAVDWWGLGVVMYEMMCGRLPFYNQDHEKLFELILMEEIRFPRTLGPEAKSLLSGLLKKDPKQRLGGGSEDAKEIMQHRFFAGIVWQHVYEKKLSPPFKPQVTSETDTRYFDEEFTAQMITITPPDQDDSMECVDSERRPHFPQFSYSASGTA
The reader will find reported IC50 values listed item by item below.

Worked set:
Cn1nccc1-c1ccc2c(c1)CN([C@H](CN)Cc1cccs1)C2=O = < 0.5 µM
COc1ccc(-c2cnn(C)c2-c2ccc3c(c2)CN([C@H](CN)Cc2cccc(F)c2)C3=O)cn1 = 0.5 to 5 µM
Cn1ncc(Cl)c1-c1ccc2c(c1)CN([C@H](CN)Cc1ccccc1F)C2=O (stereo in doubt) = < 0.5 µM

Task: State the measured IC50 (Full length Akt1 (Homo sapiens, UniProt P31749)) of `CNC(=O)c1ccc(-c2cnn(C)c2-c2ccc3c(c2)CN([C@H](CN)Cc2cccc(F)c2)C3=O)cn1`
Result: 0.5 to 5 µM
